// provenance: ChEMBL document CHEMBL1961873

Test system: Epidermal growth factor receptor (Homo sapiens), P00533 [L858R]
Sequence (P00533 whole entry L858R): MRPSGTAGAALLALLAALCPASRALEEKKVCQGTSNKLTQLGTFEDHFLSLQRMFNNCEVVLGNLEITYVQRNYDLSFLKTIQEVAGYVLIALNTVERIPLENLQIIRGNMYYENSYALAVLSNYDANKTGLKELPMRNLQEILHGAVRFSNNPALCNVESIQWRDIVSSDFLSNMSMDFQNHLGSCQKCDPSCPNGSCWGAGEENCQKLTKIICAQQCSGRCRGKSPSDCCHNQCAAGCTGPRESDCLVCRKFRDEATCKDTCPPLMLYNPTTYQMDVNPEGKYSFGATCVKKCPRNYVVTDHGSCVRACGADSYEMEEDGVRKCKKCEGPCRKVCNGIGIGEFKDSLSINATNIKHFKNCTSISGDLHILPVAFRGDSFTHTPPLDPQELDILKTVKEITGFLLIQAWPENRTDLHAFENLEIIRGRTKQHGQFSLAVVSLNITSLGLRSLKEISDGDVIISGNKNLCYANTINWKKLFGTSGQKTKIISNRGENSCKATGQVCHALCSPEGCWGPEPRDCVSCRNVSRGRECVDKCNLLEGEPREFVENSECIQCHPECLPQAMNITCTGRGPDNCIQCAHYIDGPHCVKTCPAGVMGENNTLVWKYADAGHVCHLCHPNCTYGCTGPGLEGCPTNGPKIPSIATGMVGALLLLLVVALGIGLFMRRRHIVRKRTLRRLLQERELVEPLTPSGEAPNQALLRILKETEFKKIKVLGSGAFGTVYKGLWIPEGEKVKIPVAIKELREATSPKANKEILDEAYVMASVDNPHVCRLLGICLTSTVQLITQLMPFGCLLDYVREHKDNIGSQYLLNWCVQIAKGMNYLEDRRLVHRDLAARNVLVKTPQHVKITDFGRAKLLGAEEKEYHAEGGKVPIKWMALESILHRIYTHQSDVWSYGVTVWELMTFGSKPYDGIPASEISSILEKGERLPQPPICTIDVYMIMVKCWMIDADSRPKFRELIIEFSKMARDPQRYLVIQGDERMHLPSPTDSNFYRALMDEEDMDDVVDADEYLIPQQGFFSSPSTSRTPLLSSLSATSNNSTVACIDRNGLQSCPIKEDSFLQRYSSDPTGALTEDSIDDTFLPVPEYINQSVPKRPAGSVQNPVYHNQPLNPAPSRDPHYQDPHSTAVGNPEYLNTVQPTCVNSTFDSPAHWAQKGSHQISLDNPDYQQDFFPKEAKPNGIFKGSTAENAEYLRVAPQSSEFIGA
Settings: at 0.1 µM
Answer each item with its documented inhibition.
All answers are understood in %, so give the number only.

## Task Fill blank: measured inhibition of the compound CCN1CCC(CC(=O)Nc2n[nH]c3nnc(-c4cccc(F)c4F)cc23)CC1 is ____.
## Result -0.92

## Task Lookup CC(C)(CO)CNC(=O)c1ccc2c(c1)/C(=N/Nc1ccc(S(N)(=O)=O)cc1)C(=O)N2
## Result -3.09

## Task Please answer likewise for COc1ccc(-c2cc(-c3c[nH]nc3-c3ccccn3)ccn2)cc1
## Result 1.51

## Task Repeat with COc1cc2c(cc1Nc1nc(Nc3ccsc3C(N)=O)c3cc[nH]c3n1)N(C(=O)CN(C)C)CCC2(C)C
## Result 5.69

## Task And for COC(=O)c1sc(-n2cnc3cc(OC)c(OC)cc32)cc1OCc1ccccc1C(F)(F)F ?
## Result 1.6

## Task Also FC(F)(F)c1cccc(-c2nn3ncccc3c2-c2ccnc(Nc3ccc4c(c3)OCCO4)n2)c1 ?
## Result 5.51

## Task Next record, please: CCn1c(-c2nonc2N)nc2c(C#CC(C)(C)O)nc(OC[C@H](N)c3ccccc3)cc21
## Result 1.93

## Task Okay, and Nc1nc(-c2ccc(F)cc2)c(-c2ccc3ncccc3n2)s1 ?
## Result 13.1

## Task And then CC(=O)NCc1cccc(C#Cc2cncnc2Nc2ccc(OCc3cccc(F)c3)c(Cl)c2)c1 , what is it?
## Result 10.4

## Task Next: CC1=C(C(=O)Nc2cc(Cl)c3[nH]ncc3c2)C(c2ccc(C(F)(F)F)cc2)CC(=O)N1 (stereo not drawn)
## Result 2.16

## Task Input NS(=O)(=O)c1ccc(Nc2ncc(-c3ccccc3)o2)cc1
## Result 2.83

## Task Fc1ccc(-c2nn3ncccc3c2-c2ccnc(Nc3ccc4c(c3)OCCO4)n2)cc1 ?
## Result 88.3

## Task CN1CCC(n2cnc(-c3ccc(F)cc3)c2-c2ccnc(N)n2)CC1 ?
## Result 3.61

###

Biological target: Epidermal growth factor receptor (Homo sapiens)
Conditions: at 0.1 µM
Description: GSK_PKIS: EGFR mean inhibition at 0.1 uM [Nanosyn]
Please respond with reported inhibition for every item in the list.
Please don't drop the unit; write it after the number.

## Task Tell me the measured inhibition of COC(=O)c1sc(-n2cnc3cc(OC)c(OC)cc32)cc1OCc1ccccc1C(F)(F)F , please.
## Result -0.33%

## Task One more compound: COc1cccc(-c2c[nH]c3c(N/N=C/c4ccncc4)ncnc23)c1
## Result 7.02%

## Task Query c1ccc(COc2ccc(Nc3ncnc4ccc(-c5ccco5)cc34)cc2)cc1 next
## Result 64.3%

## Task What do you get for N#Cc1c(NC(=O)CN2CCOCC2)sc2c1CCCC2 ?
## Result 0.55%

## Task One more compound: NS(=O)(=O)c1ccc(N/N=C2\C(=O)Nc3ccc4ncccc4c32)cc1
## Result 0.87%

## Task Try this compound next: Fc1ccc(-c2cc(-c3c[nH]nc3-c3ccccn3)ccn2)cc1
## Result 0.04%

## Task Also, Cc1cccc(Nc2ncc(-c3ccccc3)o2)c1 please.
## Result 2.11%

## Task Lookup COc1ccc(-c2cc(-c3c[nH]nc3-c3ccccn3)ccn2)cc1
## Result 1.65%

## Task Now the same for NC(=O)c1sc(-n2cnc3ccc(C(F)(F)F)cc32)cc1OCc1ccccc1Br
## Result 0%

## Task And then c1ccc(-c2nc3n(c2-c2ccc4c(c2)OCO4)CCC3)nc1 , what is it?
## Result 1.53%

## Task One more compound: CS(=O)(=O)CCNCc1coc(-c2ccc3ncnc(Nc4ccc(OCc5ccccc5)cc4)c3c2)c1
## Result 80.3%

## Task Param item: NS(=O)(=O)c1ccc(Nc2ncc(-c3ccccc3)o2)cc1
## Result 1.02%

## Task Item: COc1ccc(-c2oc3ncnc(N)c3c2-c2ccc(NC(=O)Nc3cc(C(F)(F)F)ccc3F)cc2)cc1
## Result 2.43%
